Test system: Staphylococcus aureus
assayRemarks: Antibacterial activity against methicillin-resistant Staphylococcus aureus 1 measured after overnight incubation by broth double-dilution method
Format: functional
Please note: MIC exactly at 2 µg/mL is Not fulfilled. Only values below 2 µg/mL get Fulfilled.

Please determine if CC(C)CCn1c(=O)c2ccccc2[s+]1[O-] (centres undefined) is below 2 µg/mL in terms of MIC.
Not fulfilled

Please determine if "CCCCCCCCn1sc2ccccc2c1=O" is below 2 µg/mL in terms of MIC.
Fulfilled

Please determine if CC(C)Cn1c(=O)c2ccccc2[s+]1[O-] (centres undefined) is below 2 µg/mL in terms of MIC.
Not fulfilled

Please determine if "O=c1c2ccccc2[se]n1-c1ccccc1" is below 2 µg/mL in terms of MIC.
Fulfilled

Please determine if "NCC[C@H](O)C(=O)N[C@@H]1C[C@H](N)[C@@H](O[C@H]2O[C@H](CN)[C@@H](O)[C@H](O)[C@H]2O)[C@H](O)[C@H]1O[C@H]1O[C@H](CO)[C@@H](O)[C@H](N)[C@H]1O" is below 2 µg/mL in terms of MIC.
Not fulfilled

Please determine if "CC(C)c1ccc(-n2sc3ccccc3c2=O)cc1" is below 2 µg/mL in terms of MIC.
Fulfilled

* * *

Test system: Staphylococcus aureus
assayRemarks: Antibacterial activity against methicillin-resistant Staphylococcus aureus S24 measured after overnight incubation by broth double-dilution method
Format: functional
measuredProperty: log10 MIC (log10 of the value in µg/mL)
Could you please treat all values as log10 of MIC in µg/mL?

Example entries begin here.
{"molecule": "O=c1c2ccccc2[se]n1-c1ccccc1 [EBSELEN]", "experimentalTarget": "Staphylococcus aureus", "log10 MIC": -0.30}
{"molecule": "O=c1c2ccccc2sn1C1CCCCCC1", "experimentalTarget": "Staphylococcus aureus", "log10 MIC": 0.59}
{"molecule": "O=c1c2ccccc2sn1C1CCCCCCC1", "experimentalTarget": "Staphylococcus aureus", "log10 MIC": 0.59}

// query log10 MIC value for entry "CCCCCCn1sc2ccccc2c1=O"
0.59

// query log10 MIC value for entry "O=c1c2ccccc2sn1CCc1ccccc1"
0.30

* * *

System: Staphylococcus aureus
assayRemarks: Antibacterial activity against methicillin-resistant Staphylococcus aureus G12 measured after overnight incubation by broth double-dilution method
Type: functional
Please note: MIC exactly at 2 µg/mL is Not satisfied. Only values below 2 µg/mL get Satisfied.

Example cases with answers are listed next.
{"compound": "O=c1c2ccccc2sn1C1CCCCC1", "cat": "Not satisfied"}
{"compound": "O=c1c2ccccc2sn1C1CCCC1", "cat": "Not satisfied"}

API: the following record is the query input.
Please determine if "CC(C)(C)n1sc2ccccc2c1=O" is below 2 µg/mL in terms of MIC.
Not satisfied

* * *

assayRemarks: Cytotoxicity against HEK293 cells assessed as cell death up to 10 ug/ml measured after 24 hrs by resazurin dye-based fluorescence analysis relative to untreated control
Assay type: toxicity
testParameters: human, hek293, 24 h
Measured Activity values are reported for all entries that follow.

Example entries begin here.
{"smilesText": "CC(C)c1ccc(-n2sc3ccccc3c2=O)cc1", "measuredProperty": "Activity", "measured": "> 20%"}
{"smilesText": "CC(C)c1cccc(-n2sc3ccccc3c2=O)c1", "measuredProperty": "Activity", "measured": "> 20%"}

Let us examine a further case.
// query Activity value for entry "O=c1c2ccccc2sn1-c1cccc2ccccc12"
> 20%
